target: UniProt:P00860; assay: Percent inhibition of TPA-induced ornithine decarboxylase activity; assay type: functional; design: concentration or dose not given beside the values; details: concentration not given here
Sequence (P00860 whole entry): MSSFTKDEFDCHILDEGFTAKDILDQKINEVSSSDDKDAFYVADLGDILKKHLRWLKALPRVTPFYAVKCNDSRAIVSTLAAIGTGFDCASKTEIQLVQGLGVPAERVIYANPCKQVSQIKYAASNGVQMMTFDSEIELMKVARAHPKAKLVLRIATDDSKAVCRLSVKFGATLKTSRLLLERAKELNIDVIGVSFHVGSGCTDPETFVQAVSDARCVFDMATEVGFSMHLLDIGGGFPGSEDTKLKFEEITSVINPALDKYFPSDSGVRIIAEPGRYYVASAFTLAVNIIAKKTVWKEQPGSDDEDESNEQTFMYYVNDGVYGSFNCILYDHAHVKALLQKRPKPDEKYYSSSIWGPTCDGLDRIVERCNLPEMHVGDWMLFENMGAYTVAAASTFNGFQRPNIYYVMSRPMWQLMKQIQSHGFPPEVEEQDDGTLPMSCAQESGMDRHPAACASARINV
Parameter: inhibition. Scope: all listed entries.

[
  {
    "Compound": "CCOC(=O)\\C=C(C)/C=C/C=C(C)/C=C/C12CC1(C)CCCC2(C)C (stereo unspecified)",
    "Test target": "UniProt:P00860",
    "inhibition [%]": 45
  },
  {
    "Compound": "CCOC(=O)\\C=C(C)/C=C/C=C(C)/C=C/C1=C(C)C2(CCC1(C)C)CC2",
    "Test target": "UniProt:P00860",
    "inhibition [%]": 67
  },
  {
    "Compound": "CCOC(=O)/C=C(C)/C=C/C=C(C)/C=C/C12CC1(C)CCCC2(C)C (stereo unspecified)",
    "Test target": "UniProt:P00860",
    "inhibition [%]": 70
  },
  {
    "Compound": "CCOC(=O)c1ccc(/C=C(C)/C=C/C2=C(C)CCCC2(C)C)cc1",
    "Test target": "UniProt:P00860",
    "inhibition [%]": 80
  },
  {
    "Compound": "CC1=C(/C=C/C(C)=C/C=C/C(C)=C\\C(=O)O)C(C)(C)CCC1",
    "Test target": "UniProt:P00860",
    "inhibition [%]": 96
  },
  {
    "Compound": "CCOC(=O)c1ccc(/C=C(C)/C=C/C23CC2(C)CCCC3(C)C)cc1 (stereo unspecified)",
    "Test target": "UniProt:P00860",
    "inhibition [%]": 80
  },
  {
    "Compound": "CCOC(=O)/C=C(C)/C=C/C=C(C)/C=C/C1=C(C)C2(CCC1(C)C)CC2",
    "Test target": "UniProt:P00860",
    "inhibition [%]": 72
  },
  {
    "Compound": "CC1=C(/C=C/C(C)=C/C=C/C(C)=C/C(=O)O)C(C)(C)CCC1",
    "Test target": "UniProt:P00860",
    "inhibition [%]": 92
  },
  {
    "Compound": "CCOC(=O)/C=C(C)/C=C/C=C(C)/C=C/C1=CC2CCC1C2 (stereo unspecified)",
    "Test target": "UniProt:P00860",
    "inhibition [%]": 54
  },
  {
    "Compound": "CCOC(=O)c1ccc(/C=C(C)/C=C/C23OC2(C)CCCC3(C)C)cc1 (stereo unspecified)",
    "Test target": "UniProt:P00860",
    "inhibition [%]": 80
  },
  {
    "Compound": "CCOC(=O)/C=C(C)/C=C/C=C(C)/C=C/C1CC2CCC1C2 (stereo unspecified)",
    "Test target": "UniProt:P00860",
    "inhibition [%]": 64
  }
]
